// provenance: paper PMC2756588

target: Bem1-1, P29366; assay: SPOT array; details: median of control spots 4282
Sequence (P29366 55-141): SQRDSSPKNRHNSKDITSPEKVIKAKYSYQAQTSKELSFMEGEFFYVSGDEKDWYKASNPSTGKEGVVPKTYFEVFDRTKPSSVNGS
MEASURED ENDPOINT: SPOT intensity

P = RSRRSSFAYPQQVAI
Q = PLRRTVMSLPGNHDI
R = FFRRSELYLPNSSKA
S = NIKVLLNPKLGKPVK
Ask: Task field, ranking: reported SPOT intensity, descending order. Reply: labels, ordered per the request.
Result: R, S, Q, P
(R: 3, S: 2, Q: 1, P: 0)
